meta.source: PubChem BioAssay

Experiment: MELAS cybrid and Rieske KO viability enhancers – cell-based, MELAS cybrids, Rieske KO mouse fibroblasts, CellTiter-Glo, primary screen (AID 1508586)
Details: MELAS cybrid survival, low glucose, CellTiter-Glo 48 h; hits give high values
Could you please classify the records by z-score using these ranges: LOW (below -0.4), MID (-0.4 to below -0.04), HIGH (-0.04 or more)

compound | class
CC1(C)OC2CO[C@@]3(COS(N)(=O)=O)OC(C)(C)OC3C2O1 (stereo not given in full) | HIGH
CCc1ccc(-c2nn(CC(=O)Nc3cnn(C)n3)c3ccccc23)cc1 | MID
CC(NC(=O)Cc1cc(F)cc(F)c1)C(=O)NC(C(=O)OC(C)(C)C)c1ccccc1 (stereo not given) | MID
CCc1ccc(C=C2SC(=S)NC2=O)cc1 | MID
CC(CNC(=O)c1cccnc1)NC(=O)c1cccnc1 (stereo not given) | MID
Cc1ccc(NCCCc2ccccc2)c(N)c1 | LOW
COc1c(O[C@@H]2O[C@H](CO)[C@@H](O)[C@H](O)[C@H]2O)cc2c(c1OC)-c1ccc(SC)c(=O)cc1[C@@H](NC(C)=O)CC2 | HIGH
CC1C[C@H]2[C@@H]3CC(F)C4=CC(=O)C=C[C@]4(C)[C@]3(F)C(O)C[C@]2(C)[C@@]1(O)C(=O)CO (stereo not given in full) | MID
CC(=O)ON=C1C(=O)N(Cc2cc(Cl)ccc2Cl)c2ccc(Cl)cc21 | HIGH
Cn1nc(C(C)(C)C)cc1NC(=O)Nc1ccc(Cl)cc1 | HIGH
COc1ccc(S(=O)(=O)N2CCN(S(=O)(=O)c3ccc4c(c3)OCCO4)CC2)cc1 | MID
O=c1[nH]c(=O)c2[nH]cnc2[nH]1 | HIGH
Cc1cc2c(C(=O)NCC(C)c3ccccc3)c(O)c(O)cc2c(O)c1-c1c(C)cc2c(C(=O)NCC(C)c3ccccc3)c(O)c(O)cc2c1O (stereo not given) | LOW
O=C(C=Cc1ccc(O)c(O)c1)c1ccc(O)cc1O | MID
NC(=O)c1sc(-n2cnc3ccccc32)cc1OCc1ccccc1Br | LOW
O=C1CCCc2occ(C(=O)N3CCc4[nH]nc(Cc5ccccc5)c4C3)c21 | MID
CC=C1NC(=O)C2CSSCCC=CC(CC(=O)NC(C(C)C)C(=O)N2)OC(=O)C(C(C)C)NC1=O (stereo not given) | HIGH
C=C1C(=O)[C@@]23C(O)[C@H]1CCC2[C@]12CO[C@]3(O)C(O)[C@@H]1C(C)(C)CCC2O (stereo not given in full) | LOW

###

Test: chitosan synthesis blockers in C. neoformans – flow cytometry, Cibacron Brilliant Red staining (AID 1347148);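 further: compound exposure lasted three days at 37 degrees C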
Settings: Cryptococcus neoformans chitosan; at 10 µM unless noted
Active and inactive are the calls of the source. How the calls were made is not given here.
Classes used: t (active), f (inactive)

compound | class
CC(C)c1cccc(O)c(=O)c1 | f
CC(=O)N[C@@H](CC(C)C)C(=O)N[C@@H](CC(C)C)C(=O)N[C@H](C=O)CCCN=C(N)N | f
CN(C)C[C@H](O)Cn1c2ccc(Br)cc2c2cc(Br)ccc21 | f
C[C@@H](/C=C/c1cccc(Oc2ccc(F)cc2)c1)N(O)C(N)=O | f
C=CC1CN2CCC1C[C@@H]2[C@H](O)c1ccnc2ccc(OC)cc12 (stereo not given in full) | f
O=C(NC[C@H]1CCCCN1)c1cc(OCC(F)(F)F)ccc1OCC(F)(F)F | f
CC12C=CC(=O)C=C1CCC1C2=CCC2(C)C1CC[C@@H]2C(=O)CN1CCN(c2cc(N3CCCC3)nc(N3CCCC3)n2)CC1 (stereo not given in full) | f
CCCCCCCCCC(=O)N[C@H](CN1CCOCC1)[C@H](O)c1ccccc1 | t
O=Cc1c2[nH]c3ccccc3c2cc2[nH]c3ccccc3c12 | f
CCCCCCCCCCC1=C(C)C(=O)C(OC)=C(OC)C1=O | f
COCc1cc(O)c(O)c(O)c1-c1c(COC)cc(O)c(O)c1O | f
Nc1ncnc2c1ncn2[C@@H]1CCCO1 | f
CCCCC/C=C\C/C=C\C/C=C\C/C=C\CCCC(=O)O[C@@H](CO)COCCCCCCCCCCCCCCCC | f
C=C1CC[C@@H](O)C/C1=C/C=C1\CCC[C@]2(C)[C@@H]1CC[C@H]2[C@@H](C)CC[C@H](O)C(C)(C)O | f
CCC(C)[C@H](NS(=O)(=O)c1cccc2ccccc12)C(=O)N[C@H](C=O)Cc1c[nH]c2ccccc12 (stereo not given in full) | f
CCCCCC(=O)/C=C/C=C\C/C=C\C/C=C\CCCC(=O)O | f
CC[C@H]1[C@@H]2C=C[C@@H]3[C@H]4C/C=C\C(=O)NCCC[C@@H]5NC(=O)C(=C5O)C(=O)CC[C@@H]4C[C@@H]3[C@H]2C[C@H]1C | f
CCCCC/C=C\C/C=C\CCCCCCCC(=O)NCC(=O)O | f
CCCCC[C@@H](O)/C=C/[C@H]1[C@H](C/C=C\CCCC(=O)O)C(=O)C[C@@H]1O | f
CCCCCCCC/C=C\CCCCCCCC(=O)OC[C@H](O)COP(=O)(O)O | f
